Tested on: pERK in ASPC1 cells
Assay: Inhibition of KRas phosphorylation of ERK (Cisbio HTRF pERK assay)
Conditions: Homo sapiens, ASPC1, read-out: Inhibition (HTRF IC50) of KRas-mediated Phosphorylation of ERK, AsPC-1
For each entry below, report its pIC50 value.
Answer as the number alone; pIC50 is minus log10 of concentration in mol/L.

Problem: Any idea what pIC50 came out for CCc1c(F)ccc2cc(O)cc(-c3ncc4c(N5CCCC6(CCC(O)C6)C5)nc(OC[C@@]56CCCN5C[C@H](F)C6)nc4c3F)c12 (stereo partly drawn) on pERK in ASPC1 cells?
Result: 6.73

Problem: State its pIC50 on pERK in ASPC1 cells: O=S1(=O)NC[C@]2(CCCN(c3nc(OC[C@@]45CCCN4C[C@H](F)C5)nc4c(F)c(-c5cc(O)cc6ccc(F)c(Cl)c56)ncc34)C2)N1
Result: 7.46

Problem: State its pIC50 on pERK in ASPC1 cells: CCc1c(F)ccc2cc(O)cc(-c3ncc4c(N5CCC[C@]6(C5)C[C@H](O)C6)nc(OC[C@@]56CCCN5C[C@H](F)C6)nc4c3F)c12 (single isomer, unassigned)
Result: 8.10

Problem: Lab request: please report pIC50 under test system pERK in ASPC1 cells for CCc1c(F)ccc2cc(O)cc(-c3ncc4c(N5CCC[C@]6(C5)C[C@](C)(O)C6)nc(OCC56CCCN5CCC6)nc4c3F)c12
Result: 5.76

Problem: Look up pIC50 with pERK in ASPC1 cells for this molecule: CCc1c(F)ccc2cc(O)cc(-c3ncc4c(N5CCC[C@@](C)(O)C5)nc(OC[C@@]56CCCN5[C@@H](COC(=O)N(C)C)CC6)nc4c3F)c12
Result: 7.26

Problem: API: value(readout=pIC50, system=pERK in ASPC1 cells) for record CCc1c(F)ccc2cc(O)cc(-c3ncc4c(NCC5CC(=O)N5)nc(OC[C@@]56CCCN5C[C@H](F)C6)nc4c3F)c12 (single isomer, unassigned)
Result: 5.39

Problem: What reported pIC50 corresponds to O=C1CC2(CCCN(c3nc(OC[C@@]45CCCN4C[C@H](F)C5)nc4c(F)c(-c5cc(O)cc6ccc(F)c(Br)c56)ncc34)C2)N1 (stereo partly drawn) on pERK in ASPC1 cells?
Result: 6.62

Problem: Can you look up pIC50 on pERK in ASPC1 cells for C[C@@]1(O)CCCN(c2nc(OC[C@@]34CCCN3C[C@H](F)C4)nc3c(F)c(-c4cc(O)cc5ccc(F)c(Cl)c45)ncc23)C1 ?
Result: 7.60

Problem: Reported pIC50 for pERK in ASPC1 cells, given CCc1c(F)ccc2cc(O)cc(-c3ncc4c(N5CCCn6nc(C(=O)N(C)CC)cc6C5)nc(OC[C@@]56CCCN5C[C@H](F)C6)nc4c3F)c12 ?
Result: 7.92

Problem: // lookup pIC50 | system=pERK in ASPC1 cells | key= CCc1c(F)ccc2cc(O)cc(-c3ncc4c(N5CCCn6nc(NC)cc6C5)nc(OC[C@@]56CCCN5C[C@H](F)C6)nc4c3F)c12
Result: 7.41

Problem: Notebook: pull reported pIC50 for pERK in ASPC1 cells, entry CCc1c(F)ccc2cc(O)cc(-c3ncc4c(N5CCC[C@@](C)(O)C5)nc(OCC5(CN6CCOCC6)CC5)nc4c3F)c12
Result: 8.22

Problem: Query for pERK in ASPC1 cells: what pIC50 does the record show for C[C@@]1(O)CCCN(c2nc(OC[C@@]34CCCN3C[C@H](F)C4)nc3c(F)c(-c4cc(O)cc5ccc(F)c(F)c45)ncc23)C1 ?
Result: 7.82
